System: OVCAR-5 ovarian
Test: NCI tumour cell line growth inhibition, 48 h

Compound	Op	TGI (µM)
CCCCCCCC(=O)OCC/C=C/C1OC1C1OC(=O)/C=C\C=C\C(=O)N(C(C)=O)C(=O)/C=C(/C)CCC2OC2C1OC(=O)NC(C)=O (stereo not drawn)	=	11.5
COC(=N)C1(C#N)NC(c2ccsc2)C(C#N)(C#N)NC1c1ccsc1 (stereo not drawn)	>	100
O=C1c2cccc3cccc(c23)C(=O)N1CCCCCN1CCN(CCN=c2cc3n(-c4ccc(Cl)cc4)c4ccccc4nc-3cc2Nc2ccc(Cl)cc2)CC1	=	20.1
Cn1c(=O)c2c(nc3[nH]c(=O)c(Br)cn32)n(C)c1=O	>	100
Cc1cn(CCCCCCOC(=O)NC(CCCNC(N)=O)C(=O)O)c(=O)[nH]c1=O (stereo not drawn)	>	100
COc1cc2c(cc1OC)C(=O)N(c1ccc(OCCN3CCCC3)cc1)C2	>	100
CC(C)(C)C[C@H]1N[C@@H](C(=O)NC2CCC(O)CC2)[C@H](c2cccc(Cl)c2F)[C@@]12C(=O)Nc1cc(Cl)ccc12 (stereo partly drawn)	=	15.2
CC(C)CCCC(C)[C@H]1CCC(C2C[C@@H](O)[C@@H]3CC(O)[C@@H](O)C[C@]3(CO)C2=O)[C@]1(C)CCO (stereo partly drawn)	=	55.8
Clc1ccc2c(c1)N(CCCN1CCCC13CCCCC3)c1ccccc1S2	=	36.3
COC(=O)C1C=CCC2CCCCC21N1CCCC1 (stereo not drawn)	>	100
COP(=O)(OC)OCN(C)CC/C=C(\C)CC/C=C(\C)CCC=C(C)C	=	39.1
CN1CCCC2[C@@H]3CCC4c5nonc5CC[C@]4(C)C3CC[C@@]21C (stereo partly drawn)	>	100
COc1nc(Cl)nc(N[C@H](C)c2c3ccccc3cc3ccccc23)n1	=	31.1
Cc1nc(NC(C)(CO)CO)nc(N/N=C/c2ccc(Cl)cc2)c1C(=O)Nc1ccc(Cl)cc1	>	100
C[n+]1cccc2ccc3cccnc3c21	>	100
OCc1ccc(N(Cc2ccc(F)cc2)Cc2ccc(F)cc2)cc1Cl	=	11.9
COC1/C=C/C(C)C(O)CC(O)/C=C/C(C)C(C(C)C(OC)C(C)CCC(=O)C(C)C(C/C=C/N(C)C=O)OC)OC(=O)/C=C/C=C(\C)CC(OC)CC2=CC(=O)O[C@@H](C(C)C(OC)C1)[C@H]2O (stereo partly drawn)	=	0.228
COc1ccc(-n2cc(-c3ccc(OC)c(OC)c3)[nH]c2=O)cc1	>	100
